These entries and their values trace back to patent US20050209278A1.

Listed below: Ki values for each entry.
# target-entity: MMP-13 (Homo sapiens, UniProt P45452)
# Construct: made in house; host or cells: baculovirus / insect cells
# assay-protocol: In vitro MMP inhibition, Ki determination (fluorogenic substrate II)
# Assay type: biochemical
# test-conditions: value outside parentheses; read-out: MMP-13 Ki
Entry rule: numbers only, all in nM.

Completed entries (count: 3):
compound	Ki [nM]
O=C(NO)C1(S(=O)(=O)N2CCN(c3ncc(-c4cccnc4)s3)CC2)CCOCC1 [Example 382]	0.647
CCCCOc1ccc(N2CCN(S(=O)(=O)C3(C(=O)NO)CCN(C(=O)CCCC)CC3)CC2)cc1 [Example 278]	0.49
COc1ccc(-c2cnc(N3CCN(S(=O)(=O)C4(C(=O)NO)CCOCC4)CC3)s2)cc1OC [Example 371]	1.35

Lab note: next compound to report on.
Quick one: Ki for CCCCc1ccc(C2CCN(S(=O)(=O)C3(C(=O)NO)CCOCC3)CC2)nc1 [Example 323] ?
0.65

###

Listed below: pKi values for each entry.
# target-entity: MMP-2 (Homo sapiens)
# Construct: made in house; host or cells: MMP-2-transfected p2AHT2 cells
# Sequence (P08253 110-660): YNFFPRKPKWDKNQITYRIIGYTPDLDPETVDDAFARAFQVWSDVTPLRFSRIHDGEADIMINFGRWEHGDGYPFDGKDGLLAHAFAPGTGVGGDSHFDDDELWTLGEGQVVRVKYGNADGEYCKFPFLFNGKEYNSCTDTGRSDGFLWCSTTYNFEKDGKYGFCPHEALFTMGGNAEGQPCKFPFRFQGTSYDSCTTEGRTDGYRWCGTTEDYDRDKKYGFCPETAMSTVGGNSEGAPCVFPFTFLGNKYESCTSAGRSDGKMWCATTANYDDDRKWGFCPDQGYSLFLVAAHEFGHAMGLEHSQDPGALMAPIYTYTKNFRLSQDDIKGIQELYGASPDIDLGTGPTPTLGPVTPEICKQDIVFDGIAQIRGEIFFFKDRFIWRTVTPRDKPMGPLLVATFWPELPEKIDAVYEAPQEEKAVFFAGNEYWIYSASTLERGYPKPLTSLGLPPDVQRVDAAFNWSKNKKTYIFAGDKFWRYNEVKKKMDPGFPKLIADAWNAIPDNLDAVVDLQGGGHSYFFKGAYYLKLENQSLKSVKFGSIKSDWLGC
# assay-protocol: In vitro MMP inhibition, Ki determination (fluorogenic substrate II)
# Format: biochemical
# test-conditions: value outside parentheses; read-out: MMP-2 Ki
Here pKi is given on a logarithmic scale as minus log10 of the concentration in mol/L.

compound	target-entity	pKi
CCCCOc1ccc(N2CCN(S(=O)(=O)C3(C(=O)NO)CCN(C(=O)CO)CC3)CC2)cc1 [Example 271]	MMP-2 (Homo sapiens)	9.18
O=C(NO)C1(S(=O)(=O)N2CCN(c3ccc(-c4cccc(OC(F)(F)F)c4)cn3)CC2)CCOCC1 [Example 319]	MMP-2 (Homo sapiens)	7.48
O=C(NO)C1(S(=O)(=O)N2CCC(c3ccc(OCC(F)(F)C(F)F)cc3)CC2)CCN(CCN2CCOCC2)CC1 [Example 385]	MMP-2 (Homo sapiens)	9.24

I'm curious: which pKi was measured for O=C(NO)C1(S(=O)(=O)N2CCC(c3ccc(-c4ccccc4)cn3)CC2)CCOCC1 [Example 392] tested on MMP-2 (Homo sapiens)?
8.40

I'm curious: which pKi was measured for NC(=O)c1ccccc1-c1cnc(N2CCN(S(=O)(=O)C3(C(=O)NO)CCOCC3)CC2)s1 [Example 383] tested on MMP-2 (Homo sapiens)?
5.91

I'm curious: which pKi was measured for O=C(NO)C1(S(=O)(=O)N2CCC(c3ccc(-c4cccc(F)c4)cn3)CC2)CCOCC1 [Example 417] tested on MMP-2 (Homo sapiens)?
8.38
